Biological target: recombinant soluble homotrimeric HA of A/Egypt/3300-NAMRU3/08 (H5N1) (Influenza A virus A/Egypt/3300-NAMRU3/2008(H5N1))
Assay: HA microarray, BCC supernatant
Settings: remark: other sources report otherwise
MEASUREMENT_TYPE: Trimeric HA Binding: RLU (RLU)

>>> quantitative_readout("TCN-521 (3280_D18) (antibody, V domains shown) VH: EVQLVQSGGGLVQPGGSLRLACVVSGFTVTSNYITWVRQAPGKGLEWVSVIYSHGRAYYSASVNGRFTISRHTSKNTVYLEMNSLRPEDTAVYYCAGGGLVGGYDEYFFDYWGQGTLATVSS VL: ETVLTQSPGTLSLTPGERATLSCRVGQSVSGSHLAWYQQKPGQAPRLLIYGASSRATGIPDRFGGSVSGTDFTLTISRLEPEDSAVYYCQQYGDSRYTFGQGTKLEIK")
47900
>>> quantitative_readout("TCN-523 (5248_A17) (antibody, V domains shown) VH: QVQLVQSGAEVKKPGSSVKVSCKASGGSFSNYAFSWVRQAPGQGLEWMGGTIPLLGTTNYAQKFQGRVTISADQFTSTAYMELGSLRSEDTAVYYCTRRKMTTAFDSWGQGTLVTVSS VL: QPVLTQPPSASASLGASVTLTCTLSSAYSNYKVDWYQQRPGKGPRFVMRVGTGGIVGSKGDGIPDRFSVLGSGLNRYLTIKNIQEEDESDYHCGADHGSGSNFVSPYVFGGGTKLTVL")
36500
>>> quantitative_readout("TCN-530 (5248_H10a) (antibody, V domains shown) VH: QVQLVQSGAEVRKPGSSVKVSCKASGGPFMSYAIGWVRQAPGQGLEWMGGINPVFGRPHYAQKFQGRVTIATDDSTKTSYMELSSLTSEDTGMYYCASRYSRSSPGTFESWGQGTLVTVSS VL: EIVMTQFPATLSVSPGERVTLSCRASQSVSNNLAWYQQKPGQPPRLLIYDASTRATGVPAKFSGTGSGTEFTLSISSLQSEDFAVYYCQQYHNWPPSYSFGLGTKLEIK")
30400
